# SYSTEM NAME: T1, biotinylated peptide representing the N-terminus of C5aR1 with tyrosine sulfation (Homo sapiens, UniProt P21730)
# T1 construct: the N-terminus with tyrosine sulfation
# T1 sequence (P21730 1-37): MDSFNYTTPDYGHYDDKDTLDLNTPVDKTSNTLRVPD
# METHOD NOTES: Epitope mapping by biolayer interferometry, N-terminus with tyrosine sulfation
# Type: binding
# Design: key: “+” indicates binding to the listed peptide; “−” indicates lack of binding to the listed peptide
# ASSAY SETUP: 10 μg/mL of antibody, biotinylated peptide on streptavidin biosensor
READOUT NAME: Binding to Sulfated N-terminal peptide

clone 11v2: anti-C5aR1 Site II antibody; VH SEQ ID NO: 482, VL SEQ ID NO: 542 (antibody, V domains shown) VH: QVQLQQSGPELVKPGASVKISCKASGYSFSSSWMNWVKQRPGKGLEWIGRISPGDGDTRYSGKFKGKATLTADKSSSTAYMQVTSLTSEDSAIYFCVRFLITSTRYVMDYWGQGTTVTVSS VL: DVVMTQTPLSLPVSLGDQASISCRSSQSLVHSNGNTYLHWYLQKPGQSPKLLIYKVSNRFSGVPDRFSGSGSGTDFTLKISRVEAEDLGVYFCSQSTLVPPTFGGGTKLEIK :: −
clone 329: anti-C5aR1 Site II antibody; VH SEQ ID NO: 492, VL SEQ ID NO: 552 (antibody, V domains shown) VH: QVQLQQSGAELTKPGASVKLSCKASGYTFTNYWMHWVKQRPGQGLEWIGYLNPSSGYTKYNQKFKDKATLTADKSSSTAYMQLNSLTYEDSAVYYCTRSGGDNYGNPYYFDRWGQGTTVTVSS VL: DVVMTQTPLSLTVSLGDQASISCRSSQSLVHSNGNTYLHWYLQKPGQSPKFLIYKVSNRFSGVPDRFSGSGSGTDFRLKISRVEAEDLGVYFCSQSTLVPLTFGAGTKLEIK :: −
clone 583: anti-C5aR1 Site I antibody; VH SEQ ID NO: 536, VL SEQ ID NO: 595 (antibody, V domains shown) VH: EVQLVESGGGLVKPGGSLKLSCAASGFTFNAYAMSWVRQTPEKRLEWVASISTGGNTYCPDSVKDRFTVSRDNVRNILYLQMSSLRSEDTAMYYCTRGYQRFSGFAYWGQGTLVTVS VL: DVVMTQTPLSPPVSLGYQASISCRSSQSLVHSNGNTYLNWYLQKPGQSPKLLIYKVSNRLSGVPDRFSGSGSGTDFTLKISRVETEDLGVYFCSQSTHVPYTFGGGTKLEIK :: +
